Origin of the recorded values: patent US7615361B2

test.name: Solubility in culture medium (nephelometry)
Format: physicochemical
assay.conditions: culture medium with 20% serum, 37 °C, plasma or biological fluid, kinetic from dmso stock; culture media containing 20% serum; NRK 6 HR; read-out: Highest Soluble Concentration
measured.quantity: solubility (µM)

1. CC[C@@]1(O)C(=O)OCc2c1cc1n(c2=O)Cc2cc3ccccc3nc2-1 ... 50

* * *

test.name: Intracellular ATP levels
Assay type: cell-based, rat
assay.conditions: rat, H4IIE rat hepatoma cells, H4IIE, 24 HR exposure; read-out: ATP TC50
Description: One test compound (Compound A) was received as dry powder and evaluated for potential cytotoxicity in a battery of in vitro assays. The compound was tested using both rat cardiomyocytes (CM) from rat neonates and a rat hepatoma (H4IIE) cell line. […] General cytotoxicity was evaluated by monitoring membrane integrity, mitochondrial function, cell proliferation, oxidative stress, and apoptosis. […] The means of each exposure group (n=3-7) were calculated for each assay performed. […]
CC50 at 24 h values for the compounds below.
measured.quantity: CC50 at 24 h (µM)

1. COc1cccc2c1C(=O)c1c(O)c3c(c(O)c1C2=O)C[C@@](O)(C(=O)CO)C[C@@H]3O[C@H]1C[C@H](N)[C@H](O[C@@H]2CCCCO2)[C@H](C)O1 ... 8
2. CC[C@@]1(O)C(=O)OCc2c1cc1n(c2=O)Cc2cc3ccccc3nc2-1 ... 1
